- System: A549/ATCC NSCLC
- Assay procedure: NCI-60 one-dose screen, 48 h (100 = growth as untreated, 0 = no growth, -100 = all killed)
- Study conditions: 10 µM unless noted
The panel holds about 83,000 compounds, 20% with a hit somewhere; the sample as a whole holds those more often.
growth vs 90%: at or above is Fulfilled, below is Not fulfilled.

# count of solved cases: 5
{"columns": ["Compound", "Study target", "Answer label"],
 "data": [
  ["CC(C)C[C@H](NC(=O)Cn1ccc(NCc2ccccc2)cc1=O)B(O)O", "A549/ATCC NSCLC", "Not fulfilled"],
  ["CCN(Cc1ccc(CN(CC)C(=O)C(Br)Br)cc1)C(=O)C(Br)Br", "A549/ATCC NSCLC", "Not fulfilled"],
  ["COc1cc(-c2n[nH]nc2-c2ccc3c(c2)OCCO3)cc(OC)c1OC", "A549/ATCC NSCLC", "Not fulfilled"],
  ["CCN(C(=O)c1cc2ncccc2[nH]1)[C@H]1CCC[C@@H](NCc2cccc(F)c2)C1", "A549/ATCC NSCLC", "Fulfilled"],
  ["Cc1ccc(C(=O)c2sc3nc4c(cc3c2N)CCCC4)c(C)c1", "A549/ATCC NSCLC", "Not fulfilled"]
]}

Data request: Given the entry Cc1cc(Nc2nc(C(=O)Nc3ccccc3)nc3ccccc23)n[nH]1 , answer whether its growth meets or surpasses 90%.
Data returned: Not fulfilled

Data request: Entry O=c1oc2c([nH]c3ccc4ccccc4c32)c2ccccc12 please
Data returned: Fulfilled

Data request: Entry O=c1oc2cc(OS(=O)(=O)c3ccc(F)cc3)ccc2c2c1CCCCC2 please
Data returned: Not fulfilled

Data request: Entry CCCCNC(=O)NS(=O)(=O)c1ccc(N2N=C(c3ccc(C)cc3C)CC2c2ccc(OC)cc2)cc1 (stereo unspecified) please
Data returned: Not fulfilled

Data request: Entry CC1Cc2c(N(C)C)ncnc2N(C)c2ccc(O)cc21 (stereo unspecified) please
Data returned: Not fulfilled

Data request: Entry CCN1C(=O)N(CC)C2Nn3c(s/c(=C\c4cccc(F)c4)c3=O)=NC21 (stereo unspecified) please
Data returned: Not fulfilled

Data request: Entry Cc1cc(-c2ccccc2)c(C)n1Cc1ccc(Cl)cc1 please
Data returned: Not fulfilled

---

- Test system: MOLT-4 leukemia
- Assay procedure: NCI-60 one-dose screen, 48 h (100 = growth as untreated, 0 = no growth, -100 = all killed)
- Study conditions: 10 µM unless noted
About 83,000 compounds went through this panel and 20% of them were active in at least one assay; those are over-represented in the sample as a whole.
Result type: growth (%)
Give the number; % is assumed, so skip it.

Known growth results, listed for orientation:
{"columns": ["Compound", "Study target", "growth, %"],
 "data": [
  ["CCC(c1cccc(Br)c1)C(C(=O)O)c1ccc(OC)cc1 (stereo not given)", "MOLT-4 leukemia", 111],
  ["COc1ccc(/C=C/C(=O)/C=C/c2cc3ccc(Cl)cc3[nH]c2=O)cc1", "MOLT-4 leukemia", 65.3],
  ["CCNC(=O)CCCCC(=O)c1c(C)[nH]c(/C=C2\\N=C(c3ccc[nH]3)C=C2OC)c1C", "MOLT-4 leukemia", 79.8],
  ["CCNc1nc(N2CC(=O)Nc3cc(OC)ccc32)c2ccccc2n1", "MOLT-4 leukemia", 24.8]
]}

Data request: Entry COc1ccc(/C=C/C(=O)OCC(=O)NNC(=O)c2ccccc2)cc1OC has what growth?
Data returned: 70.1

Data request: Entry COc1ccc(-n2cnc3c(sc4ncc(Cl)cc43)c2=O)cc1 please
Data returned: 96.6

Data request: Entry COc1cc(OC)c(C(=O)/C=C/c2cccc(C#N)c2)c(OC)c1 please
Data returned: 11.7

Data request: Entry CC(C)C(C(=O)CCN(C)C)c1ccc(Cl)cc1 (stereo not given) please
Data returned: 76.5

Data request: Entry COc1cc(OC)cc(-c2n[nH]nc2-c2ccc3c(c2)OCO3)c1 please
Data returned: 31.3

Data request: Entry Cc1c(C2=NNC(c3ccc4c(c3)OCO4)C2)[n+]([O-])c2ccccc2[n+]1[O-] (stereo not given) please
Data returned: 105

---

- Test system: MCF7 breast
- Assay procedure: NCI-60 one-dose screen, 48 h (100 = growth as untreated, 0 = no growth, -100 = all killed)
- Study conditions: 10 µM unless noted
This is part of a sample that, as a whole, favours compounds with a hit. Of some 83,000 tested, about 20% had one in any assay. Activity calls are given as the source filed them. How the source made its calls: active means growth percent below 10; inactive means the rest.
growth for assorted molecules

Data request: Entry COc1ccc(-c2nc3sccn3c2-c2ccnc(NCCCNS(=O)(=O)c3ccc(F)cc3)n2)cc1 has what growth?
Data returned: 11.6% (inactive)

Data request: Entry COc1cc(/C=C/C(=O)c2ccccc2O)ccc1OCCCOc1cc2c(cc1OC)C(=O)N1CCC[C@H]1C=N2 please
Data returned: -15.1% (active)

Data request: Entry O=C(Nc1cccc(Cl)c1)c1cc([N+](=O)[O-])ccc1O please
Data returned: 42.9% (inactive)

Data request: Entry COc1ccccc1OCC(=O)Nc1sc2c(c1C(N)=O)CCC2 please
Data returned: 27.8% (inactive)

Data request: Entry CCC(=O)Nc1ccccc1C#C/C=C\C#Cc1ccccc1SC please
Data returned: 62.2% (inactive)

Data request: Entry Cc1cc(C)c(S(=O)(=O)N2CCN(c3cc4c(cc3F)c(=O)c(C(=O)O)cn4C3CC3)CC2)c(C)c1 please
Data returned: 54% (inactive)

Data request: Entry Cc1ccc2c(c1)C(C)Cc1c(N(C)C)ncnc1N2C (stereo not given) please
Data returned: 16.9% (inactive)

Data request: Entry CCn1cc(C2NC(=O)c3cc(F)ccc3N2)c2cccc(Cl)c21 (stereo not given) please
Data returned: 15.5% (inactive)

Data request: Entry O=[N+]([O-])c1c(S(=O)(=O)O)cc2cc(S(=O)(=O)O)ccc2c1[N+](=O)[O-] please
Data returned: 97.7% (inactive)

Data request: Entry COC(=O)c1ccc2nc(-c3cc4ccccc4n3C)n(CCCCOc3cc4c(cc3OC)C(=O)N3CCC[C@H]3C=N4)c2c1 please
Data returned: 2.44% (active)

Data request: Entry Cc1cnc(NC(=O)C(Cc2ccccc2)NC(=O)c2ccccc2)s1 (stereo not given) please
Data returned: 46.2% (inactive)

Data request: Entry COc1cc(/C=C\c2cc(OC)c(OC)c(OC)c2)cc(N/C=C\C(=O)c2c[nH]c3ccccc23)c1OC please
Data returned: 4.09% (active)

---

- Tested on: OVCAR-3 ovarian
- Assay procedure: NCI-60 one-dose screen, 48 h (100 = growth as untreated, 0 = no growth, -100 = all killed)
- Study conditions: 10 µM unless noted
Compounds without any hit were thinned out: in the full panel of roughly 83,000, 20% have a hit.
Result type: growth (%)
Give the number; % is assumed, so skip it.

Known growth results, listed for orientation:
{"columns": ["Compound", "growth [%]"],
 "data": [
  ["O=S(=O)(NCCNc1cc(-c2cn(-c3ccccc3)nc2-c2ccccc2)ccn1)c1ccc(F)cc1", 94.7],
  ["CC/C=C\\C[C@H](O)C/C=C1/C(=O)C(Cl)=C[C@@H]1C/C=C\\CCCC(=O)O", 28.9],
  ["C=C1C(=O)O[C@H]2[C@H]1CC/C(COC(=O)NCCc1cccc(OC)c1)=C\\CC[C@@]1(C)O[C@@H]21", -20],
  ["COc1cccc(-c2nc3sccn3c2-c2ccnc(NCCNS(=O)(=O)c3ccccc3)n2)c1", 68.3],
  ["CCn1cc(C(=O)O)c(=O)c2cc(F)c(N3CCN(S(=O)(=O)c4ccc(Cl)cc4Cl)CC3)cc21", 7.89],
  ["CCNCc1ccncc1", 110],
  ["O=C(CCCn1c(=O)c2sc3ccccc3c2n2nnc(-c3ccccc3)c12)NCCc1cnc[nH]1", -47.6],
  ["Nc1c(C(=O)c2ccc(F)cc2)sc2nc3c(cc12)CCCC3", 87.6],
  ["Nc1cccc2c1CN(C1CCC(=O)NC1=O)C2=O (stereo unspecified)", 108],
  ["COc1ccc(NC(=O)CSc2nc3ccccc3c(=O)n2-c2ccccc2C(F)(F)F)c(OC)c1OC", 104]
]}

Data request: Entry COc1cccc(-n2cc(-c3nc(Cl)c4ccccc4n3)nn2)c1 has what growth?
Data returned: 105

Data request: Entry CC(C)C(C(=O)CCN(C)C)c1ccc(Cl)cc1 (stereo unspecified) please
Data returned: 108

Data request: Entry O=[N+]([O-])c1cccc(-c2cc(-c3cc(Br)ccc3O)[nH]n2)c1 please
Data returned: 2.12

Data request: Entry CCCCC(N)(C(=O)O)C1CCCC1 (stereo unspecified) please
Data returned: 116

Data request: Entry O=C(Nc1ccc(Cl)cc1)c1cc(-c2ccc(F)cc2)c2sc(=O)[nH]c2n1 please
Data returned: 14

Data request: Entry CC(C)C[C@H](NC(=O)Cn1ccc(NCc2ccccc2)cc1=O)B(O)O please
Data returned: -54.5

Data request: Entry C=C1C(=O)O[C@H]2[C@H]1CC/C(Cn1cc(-c3ccsc3)nn1)=C\CC[C@@]1(C)O[C@@H]21 please
Data returned: -94.8

Data origin, for the record: PubChem BioAssay (NCI)
